# Tested on: EKVX NSCLC
# method_summary: NCI tumour cell line growth inhibition, 48 h; in the data active = GI50 below about 0.43 µM; inactive = the rest
*1 amine or outer side, *2 acyl side, *3 side chain or, on linkers, in order; H or OH if unused. Where a SMILES comes first, the peptide text is derived from it. Bridges are numbered along the chain shown (N, C = ends). Roman numbers before positions name the chains, in order. [ ]: non-standard residue; d: D form. Actinocin(1to9) = Cc1c2oc3c(C)ccc(C(=O)[*:2])c3nc-2c(C(=O)[*:1])c(N)c1=O; NMeV = CN[CH](C(=O)O)C(C)C; Sar = CNCC(=O)O
Labels: label 1 (active), label 0 (inactive)

[
  {
    "compound": "Nc1ncc(-c2ccc3ncnc(N4CCc5cc(F)c(Cl)cc54)c3c2)cc1C=O",
    "category_label": "label 1"
  },
  {
    "compound": "CN1CCN(CCCCCOc2cc(O)c3c(=O)cc(-c4ccccc4)oc3c2)CC1",
    "category_label": "label 0"
  },
  {
    "compound": "COc1ccc(/C=C/C(=O)C(=O)/C=C/c2ccc(OC)c(OC)c2)cc1OC",
    "category_label": "label 0"
  },
  {
    "compound": "Cc1cc(NS(=O)(=O)c2ccc(-c3cnc(C4CC4)o3)cc2)ccc1Cl",
    "category_label": "label 0"
  },
  {
    "compound": "COc1ccc(CC2NC(=O)C(NC(=O)c3c4nc5c(C(=O)NC6C(=O)NC(Cc7ccc(OC)cc7)C(=O)N7CCCC7C(=O)N(C)CC(=O)N(C)C(C(C)C)C(=O)OC6C)ccc(C)c5oc-4c(C)c(=O)c3N)C(C)OC(=O)C(C(C)C)N(C)C(=O)CN(C)C(=O)C3CCCN3C2=O)cc1 (configuration not stated) (I: TY(Me)P[Sar][NMeV] / II: TY(Me)P[Sar][NMeV]; ester I:1-I:C, II:1-II:C; linker I:N-II:N via Actinocin(1to9); configuration not given here)",
    "category_label": "label 1"
  },
  {
    "compound": "Cc1ccc(/C=C(/C#N)n2nnc3cccc(F)c32)cc1",
    "category_label": "label 0"
  },
  {
    "compound": "Cc1cc2c3c(nc4ccccc42)C(=O)c2cccnc2-c3n1",
    "category_label": "label 0"
  }
]
